Test system: hRXR α, β, or γ
Test Method Notes: Transactivation assay (RARE-Luc dual luciferase reporter in HEK-293 cells), activity relative to LG268
Type: cell-based, human
Run Parameters: compound at 1 µM, 24 h; luciferase activity expressed relative to LG268
Observable: Activity at 1 µM

Record excerpt, results attached:
Smiles Repr: Cc1c(N(C)c2ccc(C(=O)O)cn2)sc2c1C(C)(C)CCC2
Result: * (<0.7)

Smiles Repr: CCN(c1ncc(C(=O)O)cn1)c1nc2c(s1)C(C)(C)CCC2(C)C
Result: ** (>0.7 and <0.8)

Smiles Repr: Cc1c(N(c2ccc(C(=O)O)cn2)C2CC2)sc2c1C(C)(C)CCC2(C)C
Result: ***** (>1)

Smiles Repr: CCN(c1ccc(C(=O)O)cn1)c1nc2c(s1)C(C)(C)CCC2(C)C
Result: ***** (>1)

Smiles Repr: CC1(C)CCC(C)(C)c2sc(N(CC3CC3)c3ccc(C(=O)O)cn3)nc21
Result: **** (>0.9 to <1)

Prompt line: Check the records and state Activity at 1 µM for C=C(c1ccc(C(=O)O)cn1)c1sc2c(c1C)C(C)(C)CCC2(C)C
Response line: *** (>0.8 and <0.9)

Prompt line: Check the records and state Activity at 1 µM for Cc1c(C(=O)c2ccc(C(=O)O)cn2)sc2c1C(C)(C)CCC2(C)C
Response line: ** (>0.7 and <0.8)

====

System: hRXR α, β, or γ
Test Method Notes: Transactivation assay (RARE-Luc dual luciferase reporter in HEK-293 cells), activity relative to LG268
Type: cell-based, human
Run Parameters: compound at 1 µM, 24 h; luciferase activity expressed relative to LG268
Observable: Activity at 1 µM

Record excerpt, results attached:
Molecule: Cc1c(/C=C/c2ccc(C(=O)O)cc2)sc2c1C(C)(C)CCC2(C)C
Activity at 1 µM: ***** (>1)
//
Molecule: CN(c1ccc(C(=O)O)cc1)c1nc2c(s1)C(C)(C)CCC2(C)C
Activity at 1 µM: *** (>0.8 and <0.9)
//
Molecule: CCOC1CC(C)(C)c2sc(N(C)c3ccc(C(=O)O)cc3)nc2C1(C)C (stereo not drawn)
Activity at 1 µM: *** (>0.8 and <0.9)
//
Molecule: Cc1c(C2(c3ccc(C(=O)O)cc3)CC2)sc2c1C(C)(C)CCC2(C)C
Activity at 1 µM: ***** (>1)

Prompt line: Check the records and state Activity at 1 µM for CC1(C)CCC(C)(C)c2sc(/C=C\c3ccc(C(=O)O)cc3)nc21
Response line: ***** (>1)

Prompt line: Check the records and state Activity at 1 µM for CC1(C)CCC(C)(C)c2sc(-n3nnc4cc(C(=O)O)ccc43)nc21
Response line: * (<0.7)

====

System: hRXR α, β, or γ
Test Method Notes: Transactivation assay (RARE-Luc dual luciferase reporter in HEK-293 cells), activity relative to LG268
Format: cell-based, human
Run Parameters: compound at 1 µM, 24 h; luciferase activity expressed relative to LG268
Observable: Activity at 1 µM

Record excerpt, results attached:
Compound: CC1(C)CCC(C)(C)c2sc(/C=C/c3ccc(C(=O)O)cn3)nc21 [Compound 50]
System: hRXR α, β, or γ
Observable: Activity at 1 µM
Result: * (<0.7)
//
Compound: Cc1c(C2CC2c2ccc(C(=O)O)cc2)sc2c1C(C)(C)CCC2(C)C (stereo not drawn) [Compound 31]
System: hRXR α, β, or γ
Observable: Activity at 1 µM
Result: ** (>0.7 and <0.8)
//
Compound: CN(c1ccc(C(=O)O)cc1)c1nc2c(s1)C(C)(C)C=CC2(C)C [Compound 34]
System: hRXR α, β, or γ
Observable: Activity at 1 µM
Result: ** (>0.7 and <0.8)
//
Compound: CCN(c1ccc(C(=O)O)cc1)c1sc2c(c1C)C(C)(C)CCC2(C)C [Compound 9]
System: hRXR α, β, or γ
Observable: Activity at 1 µM
Result: *** (>0.8 and <0.9)
//
Compound: CC1(C)CCC(C)(C)c2sc(Oc3ccc(C(=O)O)cc3)nc21 [Compound 46]
System: hRXR α, β, or γ
Observable: Activity at 1 µM
Result: * (<0.7)
//
Compound: Cc1c(N(C)c2ccc(C(=O)O)cn2)sc2c1C(C)(C)CCC2(C)C [Compound 17]
System: hRXR α, β, or γ
Observable: Activity at 1 µM
Result: ***** (>1)
//
Compound: CC1(C)CCC(C)(C)c2sc(N(c3ccc(C(=O)O)cc3)C3CC3)nc21 [Compound 36]
System: hRXR α, β, or γ
Observable: Activity at 1 µM
Result: ***** (>1)
//
Compound: Cc1c(/C=C\c2ccc(C(=O)O)cc2)sc2c1C(C)(C)CCC2(C)C [Compound 30]
System: hRXR α, β, or γ
Observable: Activity at 1 µM
Result: ***** (>1)

Shifting focus to the compound that follows.
Prompt line: Tell me Activity at 1 µM of Cc1c(N(C)c2ncc(C(=O)O)cn2)sc2c1C(C)(C)CCC2(C)C [Compound 23] when tested on hRXR α, β, or γ.
Response line: *** (>0.8 and <0.9)
